# Test system: P. falciparum stage V gametocytes
# Set-up: BacTiter-Glo ATP luminescence viability of purified stage V gametocytes in 384-well plates, per cent inhibition versus DMSO
# Experimental conditions: 48 h, 5 µM; inhibitor
About 3,200 (25%) of roughly 13,000 compounds showed an effect of 50% or more. The list shows a part of the results.
Observable: % Inhibition (%)

Compound: Cc1ccc(C)c(Cn2ccc3nc(N)nc(N)c32)c1
Observable: % Inhibition
Measured: 9.396

Compound: COc1cccc(C(=O)C2CC2CN(C)CC(O)c2cc(C)c(OC)cc2C)c1 (stereo not drawn)
Observable: % Inhibition
Measured: 18.93

Compound: CCN1CCC(N(Cc2ccc(-c3ccc(C(F)(F)F)cc3)cc2)C(=O)Cn2c(CCc3cccc(F)c3F)cc(=O)c3ccccc32)CC1
Observable: % Inhibition
Measured: 110.1

Compound: COc1ccc(NC(=O)Nc2ccc(-c3ccccc3)cc2Cl)cc1N1CCN(C)CC1
Observable: % Inhibition
Measured: -40.38

Compound: NC(=O)c1ccsc1NC(=O)CNC(c1ccccc1)c1ccccc1
Observable: % Inhibition
Measured: 2.042

Compound: CC1CN(Cc2ccccc2)CCN1c1ccc(NC(=O)c2cccs2)cc1 (stereo not drawn)
Observable: % Inhibition
Measured: 31.52

Compound: Cc1cccc(Cn2nc(-c3ccccc3)c(N3CCCCC3)cc2=O)c1
Observable: % Inhibition
Measured: -20.8

Compound: Cc1cccc(-c2c(C)nc(N)nc2N)c1
Observable: % Inhibition
Measured: 4.683

Compound: COCCCC1C(=O)OC2CCCC21 (stereo not drawn)
Observable: % Inhibition
Measured: 9.495

Compound: Cc1cccc(Cn2ccc3c(N)nc(N)nc32)c1
Observable: % Inhibition
Measured: 54.63

Compound: Clc1ccc(OCc2ccccc2)c(-c2nc(-c3nc4ncc(Br)cc4[nH]3)cs2)c1
Observable: % Inhibition
Measured: -65.34

Compound: COc1ccc(C(=O)C2CC2CN(C)CCC(O)c2ccc(Cl)c(Cl)c2)cc1 (stereo not drawn)
Observable: % Inhibition
Measured: -25.71

Compound: COc1ccc(C(=O)C2CC2CN(C)CC(O)c2cc(C)c(OC)cc2C)cc1 (stereo not drawn)
Observable: % Inhibition
Measured: 56.77

Compound: CC1c2cccc(O)c2CCN1CCc1ccc(Cl)c(Cl)c1 (stereo not drawn)
Observable: % Inhibition
Measured: -24.59

Compound: O=C(Nc1ccc(-c2nc3ccccc3[nH]2)cc1)C1CCN(Cc2ccc(F)cc2)CC1
Observable: % Inhibition
Measured: 4.478

Compound: COc1ccc(NC(=O)Nc2ccc(-c3cccc(-c4nc5c(C)cccc5[nH]4)c3)cc2)cc1
Observable: % Inhibition
Measured: -21.29

Compound: CC(CCc1ccccc1)NCC(O)c1ccc2c3c(cccc13)S(=O)(=O)N2C (stereo not drawn)
Observable: % Inhibition
Measured: 8.689

Compound: Nc1nc(N)c2c(ccn2Cc2cc3c(cc2Cl)OCO3)n1
Observable: % Inhibition
Measured: -14.37

###

# Test system: P. falciparum stage V gametocytes
# Set-up: BacTiter-Glo ATP luminescence viability of purified stage V gametocytes in 384-well plates, per cent inhibition versus DMSO
# Experimental conditions: 48 h, 5 µM; inhibitor
Screen size: about 13,000 compounds; about 3,200 (25%) showed an effect of 50% or more. The list shows a part of the results.
Each entry below carries its recorded % Inhibition.
Observable: % Inhibition (%)

Smiles entry: CC(C)(CNC(=O)[C@@H]1CCCN(CCOc2ccc(F)c(F)c2)C1)c1nc(-c2ccc(Cl)c(O)c2)c(-c2ccncc2)[nH]1
Observable: % Inhibition
Measured: 11.15
--
Smiles entry: CN1CC=C(c2c[nH]c3ccc(Br)cc23)CC1
Observable: % Inhibition
Measured: -11.28
--
Smiles entry: CN(CCCNCc1cccc2ccccc12)CCCNCc1cccc2ccccc12
Observable: % Inhibition
Measured: 108.9
--
Smiles entry: CN(Cc1c(Cl)cnn1C)S(=O)(=O)c1ccc2ccccc2c1
Observable: % Inhibition
Measured: 3.551
--
Smiles entry: O=C(CCc1c[nH]cn1)Nc1cccc(-c2ccc(-c3nc4cc(F)ccc4[nH]3)s2)c1
Observable: % Inhibition
Measured: 19.34
--
Smiles entry: COc1cccc(CNC[C@@H](O)[C@H](Cc2ccccc2)NC(=O)c2cc3c4c(c2)c(C(C)C)cn4CCS(=O)(=O)N3C)c1
Observable: % Inhibition
Measured: 25
--
Smiles entry: CN(CCCNCc1ccc2ccccc2c1)CCCNCc1ccc2ccccc2c1
Observable: % Inhibition
Measured: 106.3
--
Smiles entry: c1ccc2c(c1)CN(CC1CCOCC1)CC1(CCN(Cc3c[nH]c4cnccc34)CC1)O2
Observable: % Inhibition
Measured: 13.86

###

# System: P. falciparum stage V gametocytes
# Parameters: BacTiter-Glo ATP luminescence viability of purified stage V gametocytes in 384-well plates, per cent inhibition versus DMSO
# Experimental conditions: 48 h, 5 µM; inhibitor
About 3,200 (25%) of roughly 13,000 compounds showed an effect of 50% or more. The list shows a part of the results.
// label = condition met if % Inhibition is not less than 30%, otherwise condition not met

Compound: Cc1ccc(Cn2ncc(N3CC(C)NC(C)C3)c(Cl)c2=O)cc1NC(=O)Nc1ccc(-c2ccccc2)cc1 (stereo not shown)
Target system: P. falciparum stage V gametocytes
Group label: condition not met

Compound: Cc1ccc(Cn2ncc(N3CCNCC3)c(Cl)c2=O)cc1NC(=O)Nc1ccc(-c2ccccc2)cc1
Target system: P. falciparum stage V gametocytes
Group label: condition met

Compound: Cc1c(Cn2ncc(N3CC(C)NC(C)C3)c(Cl)c2=O)cccc1NC(=O)Nc1ccc(-c2ccccc2)cc1 (stereo not shown)
Target system: P. falciparum stage V gametocytes
Group label: condition not met

Compound: COC(=O)c1ccc(CC(C)NCC(O)c2cccc(Br)c2)cc1 (stereo not shown)
Target system: P. falciparum stage V gametocytes
Group label: condition not met

Compound: O=C(Nc1ccc(Cn2ncc(N3CCNCC3)c(Cl)c2=O)cc1)Nc1ccc(-c2ccccc2)cc1
Target system: P. falciparum stage V gametocytes
Group label: condition not met

Compound: O=C(Nc1ccc(-c2ccccc2)cc1)Nc1cccc(Cn2ncc(N3CCCNCC3)c(Cl)c2=O)c1
Target system: P. falciparum stage V gametocytes
Group label: condition not met

Compound: COc1ccc2nccc(NN=Cc3cccc(C)n3)c2c1
Target system: P. falciparum stage V gametocytes
Group label: condition not met

Compound: COc1cc(NC(=O)/C=C/c2ccccc2Cl)cc(OCCN2CCC(O)(c3ccccc3)CC2)c1
Target system: P. falciparum stage V gametocytes
Group label: condition not met

Compound: CC1CN(c2cnn(Cc3cccc(NC(=O)Nc4ccc(-c5ccccc5)cc4)c3)c(=O)c2Cl)CC(C)N1 (stereo not shown)
Target system: P. falciparum stage V gametocytes
Group label: condition not met

Compound: CC1CN(Cc2csc(Nc3ccccc3)n2)CC(C)O1 (stereo not shown)
Target system: P. falciparum stage V gametocytes
Group label: condition met

Compound: CC1CN(c2cnn(Cc3ccc(NC(=O)Nc4ccc(-c5ccccc5)cc4)cc3)c(=O)c2Cl)CC(C)N1 (stereo not shown)
Target system: P. falciparum stage V gametocytes
Group label: condition met

Compound: COc1ccccc1CNCC(O)c1cc(C(F)(F)F)ccc1C(F)(F)F (stereo not shown)
Target system: P. falciparum stage V gametocytes
Group label: condition met

Compound: N=c1n(CCN2CCCC2)c2ccccc2n1CC(O)c1ccc(Cl)c(Cl)c1 (stereo not shown)
Target system: P. falciparum stage V gametocytes
Group label: condition met

Compound: O=C(N[C@@H](Cc1ccccc1)C(=O)NCCN1CCCCC1)c1ccc(O)c(-c2ccc(Cl)c(Cl)c2)c1
Target system: P. falciparum stage V gametocytes
Group label: condition not met

Compound: N=c1n(CCN2CCCCC2)c2ccccc2n1CC(O)c1cccc(Br)c1 (stereo not shown)
Target system: P. falciparum stage V gametocytes
Group label: condition met

Compound: NC1CCN(c2cnn(Cc3cccc(NC(=O)Nc4ccc(-c5ccccc5)cc4)c3)c(=O)c2Cl)CC1
Target system: P. falciparum stage V gametocytes
Group label: condition met

###

# System: P. falciparum stage V gametocytes
# Parameters: BacTiter-Glo ATP luminescence viability of purified stage V gametocytes in 384-well plates, per cent inhibition versus DMSO
# Experimental conditions: 48 h, 5 µM; inhibitor
Out of some 13,000 compounds screened, about 3,200 (25%) showed an effect of 50% or more. Some of the results follow.
Each entry below carries its recorded % Inhibition.
Observable: % Inhibition

Molecule: Cc1cc(N)c2cc(NC(=O)c3cc(C(F)(F)F)cc(C(F)(F)F)c3)ccc2n1 [TCMDC-139377]
Observable: % Inhibition
Measured: 129.8%

Molecule: COc1cc(C)nc2ccc(NC(=O)c3cc(C(F)(F)F)cc(C(F)(F)F)c3)cc12 [TCMDC-139381]
Observable: % Inhibition
Measured: -62.94%

Molecule: O=C(/C=C/c1ccc(Cl)c(Cl)c1)NCCCCCN1CCCN(C(=O)Nc2cc(Cl)cc(Cl)c2)CC1 [TCMDC-135760]
Observable: % Inhibition
Measured: -3.132%

Molecule: CC1CN(Cc2ccc(-c3ccc(-c4nc5cc(F)ccc5[nH]4)cc3)cc2)CC(C)O1.O=C(O)C(F)(F)F (stereo not drawn) [TCMDC-133831]
Observable: % Inhibition
Measured: -15.75%

Molecule: Cc1cc(N)c2cc(NC(=O)c3ccc4ccccc4c3)ccc2n1 [TCMDC-139362]
Observable: % Inhibition
Measured: 110.4%

Molecule: O=C(COc1ccc(Cl)c(Cl)c1)NCCCCCN1CCCN(C(=O)Nc2cc(Cl)cc(Cl)c2)CC1 [TCMDC-136293]
Observable: % Inhibition
Measured: 78.53%

Molecule: NCc1cccc(-c2ccc(CNC3CCN(Cc4ccccc4)CC3)cc2)c1 [TCMDC-140486]
Observable: % Inhibition
Measured: 46.75%

Molecule: Cc1ccc(Nc2nc(N/N=C/c3cccc([N+](=O)[O-])c3)nc(Nc3ccccc3)n2)c(C)c1 [TCMDC-124206]
Observable: % Inhibition
Measured: 1.923%

Molecule: O=C(/C=C/c1ccc(Cl)c(Cl)c1)NCCCCCN1CCCN(C(=O)Nc2ccc(F)c(Cl)c2)CC1 [TCMDC-135755]
Observable: % Inhibition
Measured: -45.85%

Molecule: Cc1[nH]cnc1-c1cccc(NC(=O)c2cc3ccccc3s2)c1 [TCMDC-140418]
Observable: % Inhibition
Measured: -4.001%

Molecule: O=C(COc1ccc(Cl)c(Cl)c1)NCCCCCN1CCCN(C(=O)Nc2ccc(Cl)c(Cl)c2)CC1 [TCMDC-136292]
Observable: % Inhibition
Measured: 72.04%

Molecule: CCOc1ccc2nc(C)cc(NN=Cc3cccc(F)c3)c2c1 [TCMDC-142093]
Observable: % Inhibition
Measured: 73.55%

Molecule: O=C(Nc1ccc2c(c1)OCCO2)c1cc(-c2cccnc2)nc2ccc(Cl)cc12 [TCMDC-124362]
Observable: % Inhibition
Measured: -23.33%

Molecule: NC1CCN(Cc2ccc(-c3ccc(-c4nc5cc(F)ccc5[nH]4)cc3)cc2)C1 (stereo not drawn) [TCMDC-133872]
Observable: % Inhibition
Measured: 102.5%

Molecule: CC(C)c1cc(N)c2cc(NC(=O)COCC(=O)Nc3ccc4nc(C(C)C)cc(N)c4c3)ccc2n1 [TCMDC-140151]
Observable: % Inhibition
Measured: 20.51%

Molecule: Cc1nc(-c2cccc(Nc3nccc(NCC(O)c4cccc(C(F)(F)F)c4)n3)c2)cs1 (stereo not drawn) [TCMDC-136581]
Observable: % Inhibition
Measured: -55.32%

Molecule: O=S(=O)(NCCN1CCCC1)c1ccc(-c2ccccc2CNC2Cc3ccccc3C2)cc1 [TCMDC-132210]
Observable: % Inhibition
Measured: 61.07%

Molecule: CC(=O)N(C)C1CCN(Cc2ccc(-c3cccc(-c4nc5ccc(F)cc5[nH]4)c3)cc2)C1 (stereo not drawn) [TCMDC-133885]
Observable: % Inhibition
Measured: 25.2%

Molecule: Cc1ccc(/C=C/C(=O)NCCCCCN2CCCN(C(=O)Nc3ccc(Cl)c(Cl)c3)CC2)cc1 [TCMDC-136111]
Observable: % Inhibition
Measured: -64.67%

Molecule: O=S(=O)(NCCN1CCCC1)c1cccc(-c2ccccc2CNC2Cc3ccccc3C2)c1 [TCMDC-132212]
Observable: % Inhibition
Measured: 102.4%

Molecule: Nc1nc(N)c2cc(CNc3ccc(Cl)c(Cl)c3)ccc2n1 [TCMDC-141974]
Observable: % Inhibition
Measured: -49.67%

Molecule: S=C(NN=Cc1ccccn1)Nc1ccc2c(c1)OCCO2 [TCMDC-132009]
Observable: % Inhibition
Measured: 95.93%

Molecule: CC(=O)c1ccc2cc(C(=O)NC3CCC(CCN4CCc5ccc(-c6noc(C)n6)cc5CC4)CC3)[nH]c2c1 (stereo not drawn) [TCMDC-140072]
Observable: % Inhibition
Measured: -66.89%

Molecule: OC1CCCN(Cc2ccc(-c3cccc(-c4nc5ccc(F)cc5[nH]4)c3)cc2)C1 (stereo not drawn) [TCMDC-133815]
Observable: % Inhibition
Measured: -14.67%

Molecule: CCN1CCN(c2cc(C)c3cc(NC(=O)c4ccc(C(C)(C)C)cc4)ccc3n2)CC1 [TCMDC-125579]
Observable: % Inhibition
Measured: -38.88%

Molecule: NC1CCCN(Cc2ccc(-c3cccc(-c4nc5ccc(F)cc5[nH]4)c3)cc2)C1 (stereo not drawn) [TCMDC-133840]
Observable: % Inhibition
Measured: 68.96%

Molecule: Cc1cc(NN=Cc2ccccn2)c2cc(C(F)(F)F)ccc2n1 [TCMDC-142022]
Observable: % Inhibition
Measured: 35.2%

Molecule: NCc1ccc(-c2cccc(CNC3CCN(Cc4ccccc4)CC3)c2)cc1 [TCMDC-140478]
Observable: % Inhibition
Measured: 84.33%

Molecule: O=C(O)C(F)(F)F.OC1CCCN(Cc2ccc(-c3ccc(-c4nc5cc(F)ccc5[nH]4)cc3)cc2)C1 (stereo not drawn) [TCMDC-133833]
Observable: % Inhibition
Measured: -10.21%

Molecule: FC(F)(F)c1cccc(NC(=S)NN=Cc2ccccn2)c1 [TCMDC-123509]
Observable: % Inhibition
Measured: 31.63%

Molecule: COc1cccc2c(N/N=C/c3ccccc3[N+](=O)[O-])cc(C)nc12 [TCMDC-142043]
Observable: % Inhibition
Measured: 74.75%

Molecule: Cc1cc(Nc2cccc(C(F)(F)F)c2)nc2ccc(NC(=O)c3ccc(=O)[nH]c3)cc12 [TCMDC-125286]
Observable: % Inhibition
Measured: -51.61%

Molecule: NC1CCN(Cc2ccc(-c3cccc(-c4nc5ccc(F)cc5[nH]4)c3)cc2)C1 (stereo not drawn) [TCMDC-133838]
Observable: % Inhibition
Measured: 61.76%
